biological target: FXR (Homo sapiens (Human), UniProt Q96RI1); test: transient human FXR/Gal4-luciferase reporter assay; format: cell-based
Sequence (Q96RI1 262-486): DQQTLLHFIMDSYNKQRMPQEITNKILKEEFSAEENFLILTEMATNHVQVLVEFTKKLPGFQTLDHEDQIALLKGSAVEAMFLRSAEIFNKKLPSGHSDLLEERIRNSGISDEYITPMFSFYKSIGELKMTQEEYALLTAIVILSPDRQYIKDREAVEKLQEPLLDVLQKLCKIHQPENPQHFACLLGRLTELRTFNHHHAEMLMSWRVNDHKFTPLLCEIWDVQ
test-readout: pEC50
In textbook form, pEC50 equals minus log to base ten of the concentration in mol/L.

compound	test-readout	reported-result
CCOc1ncc(-c2cccc(N(CC34CCC(c5noc(C6(C(F)(F)F)CC6)n5)(CC3)CC4)C(=O)C34CC(F)(C3)C4)c2)cn1	pEC50	6.85
Cc1nc2ccc(-c3cccc(N(CC45CCC(c6nnc(C7CC7)o6)(CC4)CC5)C(=O)C4CCC(F)(F)C4)c3)cc2s1 (stereo not drawn)	pEC50	6.81
CS(=O)(=O)Nc1ccc(-c2cccc(N(CC34CCC(c5noc(C6(C(F)(F)F)CC6)n5)(CC3)CC4)C(=O)C34CC(F)(C3)C4)c2)cc1	pEC50	6.72
CCOc1ncc(-c2cccc(N(CC34CCC(c5noc(C6(C)COC6)n5)(CC3)CC4)C(=O)[C@H]3C[C@@](C)(O)C3)c2)cn1	pEC50	6.30
CCOc1ccc(-c2ccnc(N(CC34CCC(c5noc(C(C)(C)C)n5)(CC3)CC4)C(=O)C34CC(F)(C3)C4)c2)cc1	pEC50	7.07

Note: attention shifts to another entry.
[ask] # query: pEC50 of entry CC(C)(O)c1ccc(-c2cccc(N(CC34CCC(c5noc(C(C)(C)F)n5)(CC3)CC4)C(=O)N3CC(O)(C(F)(F)F)C3)c2)cc1
[reply] 6.63
